test system: SH-SY5Y-TrkB; experiment: Differentiation of TrkB cells, live cell images at 72 hours; format: cell-based, human; details: SH-SY5Y-TrkB, ligand BDNF, 72 hours
MEASUREMENT NAME: Experimentally measured percentage of differentiated cells

Problem: Find the recorded Experimentally measured percentage of differentiated cells belonging to "CC(=O)Nc1cccc(-n2c(=O)n(C3CC3)c(=O)c3c(Nc4ccc(I)cc4F)n(C)c(=O)c(C)c32)c1" and report it.
Result: 20% ± 1%

Problem: Find the recorded Experimentally measured percentage of differentiated cells belonging to "Cn1cc(-c2ccc(F)c(C(F)(F)F)c2)nc1C1CCN(c2ncnc3[nH]ncc23)CC1" and report it.
Result: 45% ± 3%

Problem: Find the recorded Experimentally measured percentage of differentiated cells belonging to "CC[n+]1c(/C=C/N(C)c2ccccc2)n(-c2ccccc2)c2ccc(-c3nc4ccccc4s3)cc21.[I-]" and report it.
Result: 34.3% ± 0.8%

Problem: Find the recorded Experimentally measured percentage of differentiated cells belonging to CC(C)CCN1c2nc(Nc3cc(F)c(O)c(F)c3)ncc2N(C)C(=O)C1C (stereo not drawn) and report it.
Result: 29% ± 4%

Problem: Find the recorded Experimentally measured percentage of differentiated cells belonging to "Cc1cc(NC(=O)c2cccc(NC(=O)/C=C/CN(C)C)c2)ccc1Nc1nccc(-c2cccnc2)n1" and report it.
Result: 25% ± 4%

Problem: Find the recorded Experimentally measured percentage of differentiated cells belonging to "Oc1c2ccccc2c2c3c(cccc13)N=N2" and report it.
Result: 55% ± 4%

---

test system: SH-SY5Y-TrkA; experiment: Differentiation of TrkA cells, live cell images at 72 hours; settings: SH-SY5Y-TrkA, ligand NGF, 72 hours
For each entry below, report its Experimentally measured percentage of differentiated cells value.

Problem: // map "Cn1cc(-c2ccc(F)c(C(F)(F)F)c2)nc1C1CCN(c2ncnc3[nH]ncc23)CC1" to recorded Experimentally measured percentage of differentiated cells (system: SH-SY5Y-TrkA)
Result: 41% ± 5%

Problem: // map CC(C)CCN1c2nc(Nc3cc(F)c(O)c(F)c3)ncc2N(C)C(=O)C1C (stereo not drawn) to recorded Experimentally measured percentage of differentiated cells (system: SH-SY5Y-TrkA)
Result: 37.0% ± 2.4%

Problem: // map "CC(=O)Nc1cccc(-n2c(=O)n(C3CC3)c(=O)c3c(Nc4ccc(I)cc4F)n(C)c(=O)c(C)c32)c1" to recorded Experimentally measured percentage of differentiated cells (system: SH-SY5Y-TrkA)
Result: 48% ± 3%

Problem: // map "CC[n+]1c(/C=C/N(C)c2ccccc2)n(-c2ccccc2)c2ccc(-c3nc4ccccc4s3)cc21.[I-]" to recorded Experimentally measured percentage of differentiated cells (system: SH-SY5Y-TrkA)
Result: 62% ± 3%

Problem: // map "Cc1cc(NC(=O)c2cccc(NC(=O)/C=C/CN(C)C)c2)ccc1Nc1nccc(-c2cccnc2)n1" to recorded Experimentally measured percentage of differentiated cells (system: SH-SY5Y-TrkA)
Result: 45% ± 5%

Problem: // map "Oc1c2ccccc2c2c3c(cccc13)N=N2" to recorded Experimentally measured percentage of differentiated cells (system: SH-SY5Y-TrkA)
Result: 64.4% ± 2.5%
